Tested system: GRM5 (Homo sapiens)
Construct: purchased Promega (in-house HiBiT-GPCR construct library, NanoBRET)
Sequence (P41594 21-1212): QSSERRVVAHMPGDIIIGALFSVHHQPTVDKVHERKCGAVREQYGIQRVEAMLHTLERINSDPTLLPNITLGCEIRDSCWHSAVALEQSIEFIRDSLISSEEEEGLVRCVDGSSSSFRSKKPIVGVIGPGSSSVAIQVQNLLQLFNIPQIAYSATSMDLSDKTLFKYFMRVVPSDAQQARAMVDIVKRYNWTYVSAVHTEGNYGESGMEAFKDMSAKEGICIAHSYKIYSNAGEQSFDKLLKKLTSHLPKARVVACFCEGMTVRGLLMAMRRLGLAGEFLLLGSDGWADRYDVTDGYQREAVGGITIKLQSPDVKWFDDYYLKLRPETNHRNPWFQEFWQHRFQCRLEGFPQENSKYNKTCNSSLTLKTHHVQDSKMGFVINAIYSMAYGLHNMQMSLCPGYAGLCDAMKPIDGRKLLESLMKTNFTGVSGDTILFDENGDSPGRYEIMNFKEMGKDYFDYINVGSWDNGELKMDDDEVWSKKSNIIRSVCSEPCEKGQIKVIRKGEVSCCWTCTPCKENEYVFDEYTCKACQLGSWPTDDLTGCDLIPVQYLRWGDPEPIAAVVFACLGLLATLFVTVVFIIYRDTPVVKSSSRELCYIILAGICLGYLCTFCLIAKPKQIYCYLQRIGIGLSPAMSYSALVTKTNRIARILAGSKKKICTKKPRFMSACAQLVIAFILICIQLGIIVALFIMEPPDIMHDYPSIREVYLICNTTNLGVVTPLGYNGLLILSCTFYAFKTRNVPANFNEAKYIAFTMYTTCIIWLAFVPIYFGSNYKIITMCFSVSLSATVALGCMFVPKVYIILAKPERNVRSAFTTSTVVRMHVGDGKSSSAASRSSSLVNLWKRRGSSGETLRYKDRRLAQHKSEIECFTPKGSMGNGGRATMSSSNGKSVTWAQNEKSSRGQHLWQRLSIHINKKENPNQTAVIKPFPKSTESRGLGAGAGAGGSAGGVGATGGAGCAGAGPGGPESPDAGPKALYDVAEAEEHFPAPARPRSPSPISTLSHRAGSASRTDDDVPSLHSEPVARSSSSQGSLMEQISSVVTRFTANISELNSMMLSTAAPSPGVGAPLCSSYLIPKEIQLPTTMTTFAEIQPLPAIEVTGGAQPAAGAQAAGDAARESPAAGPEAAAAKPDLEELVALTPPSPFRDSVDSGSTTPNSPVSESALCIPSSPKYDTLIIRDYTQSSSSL
Assay procedure: NanoBRET screen HiBiT-GRM5 in HEK293
Type: binding
Test parameters: GRM5; tracer 0.1μM
Hi there, I'd appreciate the recorded NanoBRET Fold Response for every entry that follows.

Please report the recorded NanoBRET Fold Response for COc1ccccc1N1CCN(CCCCN2C(=O)c3ccc(CNC(=O)CCOCCNC(=O)c4ccc(CNC(=O)CCc5ccc6n5[B-](F)(F)[N+]5=C(c7ccc[nH]7)C=CC5=C6)cc4)cc3C2=O)CC1 .
1.05

And the next one, Cc1nc2n(c(=O)c1CCN1CCC(c3noc4cc(F)ccc34)CC1)CCCC2OC(=O)NCCOCCOCCOCCOCCNC(=O)CCc1ccc2n1[B-](F)(F)[N+]1=C(c3ccc[nH]3)C=CC1=C2 (centres unmarked) ?
0.98

Same for O=C(CCc1ccc2n1[B-](F)(F)[N+]1=C(c3ccc[nH]3)C=CC1=C2)NCCOCCOCCNC(=O)OCCOCCN1CCN(C2=Nc3ccccc3Sc3ccccc32)CC1
1.08

Please answer likewise for CC(C)N(CC[C@H](c1ccccc1)c1cc(CCNC(=O)CCOCCOCCOCCOCCNC(=O)CCc2ccc3n2[B-](F)(F)[N+]2=C(c4ccc[nH]4)C=CC2=C3)ccc1O)C(C)C
0.99

Okay, and Cc1cc2c(s1)Nc1ccccc1N=C2N1CCN(CCCNC(=O)CCOCCOCCOCCOCCNC(=O)CCc2ccc3n2[B-](F)(F)[N+]2=C(c4ccc[nH]4)C=CC2=C3)CC1 ?
0.95

###

Could you please report measured NanoBRET Fold Response for the items listed next?
Tested system: MCHR2 (Homo sapiens, UniProt Q969V1)
Construct: purchased Promega (in-house HiBiT-GPCR construct library, NanoBRET)
Sequence (Q969V1 whole entry): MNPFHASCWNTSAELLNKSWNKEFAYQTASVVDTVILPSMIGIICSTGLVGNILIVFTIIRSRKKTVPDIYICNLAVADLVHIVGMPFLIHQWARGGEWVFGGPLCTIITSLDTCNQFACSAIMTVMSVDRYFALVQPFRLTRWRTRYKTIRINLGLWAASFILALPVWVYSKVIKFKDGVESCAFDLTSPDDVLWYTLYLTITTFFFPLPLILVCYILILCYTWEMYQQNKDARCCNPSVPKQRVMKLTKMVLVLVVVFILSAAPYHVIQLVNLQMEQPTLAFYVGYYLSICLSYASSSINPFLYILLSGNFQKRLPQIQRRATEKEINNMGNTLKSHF
Assay procedure: NanoBRET screen HiBiT-MCHR2 in HEK293
Format: binding
Test parameters: MCHR2; tracer 0.1μM
When you answer, write just the number.

// returns reported NanoBRET Fold Response for input CC(C)N(CC[C@H](c1ccccc1)c1cc(CCNC(=O)c2ccc(CNC(=O)CCc3ccc4n3[B-](F)(F)[N+]3=C(c5ccc[nH]5)C=CC3=C4)cc2)ccc1O)C(C)C
0.93

Next up: N#CN=C(NCCCOc1cccc(CN2CCCCC2)c1)NCCNC(=O)CCOCCOCCOCCOCCNC(=O)CCc1ccc2n1[B-](F)(F)[N+]1=C(c3ccc[nH]3)C=CC1=C2
0.97

Same thing, different compound: Cc1nc2n(c(=O)c1CCN1CCC(c3noc4cc(F)ccc34)CC1)CCCC2OC(=O)NCCOCCOCCOCCOCCNC(=O)CCc1ccc2n1[B-](F)(F)[N+]1=C(c3ccc[nH]3)C=CC1=C2 (centres unmarked)
0.96

Now consider Cc1cc2c(s1)Nc1ccccc1N=C2N1CCN(CCCNC(=O)CCOCCOCCOCCOCCNC(=O)CCc2ccc3n2[B-](F)(F)[N+]2=C(c4ccc[nH]4)C=CC2=C3)CC1 .
0.98

Entry to check: CC(C)N(CC[C@H](c1ccccc1)c1cc(CCNC(=O)CCOCCOCCOCCOCCNC(=O)CCc2ccc3n2[B-](F)(F)[N+]2=C(c4ccc[nH]4)C=CC2=C3)ccc1O)C(C)C
1.59

###

Tested system: GPR50 (Homo sapiens, UniProt Q13585)
Construct: purchased Promega (in-house HiBiT-GPCR construct library, NanoBRET)
Sequence (Q13585 whole entry): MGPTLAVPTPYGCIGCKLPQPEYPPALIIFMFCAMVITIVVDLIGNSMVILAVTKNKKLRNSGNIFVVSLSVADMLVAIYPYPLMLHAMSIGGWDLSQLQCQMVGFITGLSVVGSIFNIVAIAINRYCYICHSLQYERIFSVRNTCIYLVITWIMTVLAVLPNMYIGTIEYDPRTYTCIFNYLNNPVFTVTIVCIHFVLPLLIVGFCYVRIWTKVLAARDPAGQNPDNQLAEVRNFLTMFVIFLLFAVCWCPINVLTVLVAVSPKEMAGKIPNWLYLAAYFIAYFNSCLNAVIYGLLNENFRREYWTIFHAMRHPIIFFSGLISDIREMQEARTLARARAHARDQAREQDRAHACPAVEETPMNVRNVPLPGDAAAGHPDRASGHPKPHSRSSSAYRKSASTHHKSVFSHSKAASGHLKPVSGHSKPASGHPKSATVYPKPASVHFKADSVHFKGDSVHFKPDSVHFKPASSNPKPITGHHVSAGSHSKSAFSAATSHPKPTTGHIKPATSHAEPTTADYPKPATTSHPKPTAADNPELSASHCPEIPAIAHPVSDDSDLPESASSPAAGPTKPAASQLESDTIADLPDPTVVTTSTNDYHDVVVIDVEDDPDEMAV
Assay procedure: NanoBRET screen HiBiT-GPR50 in HEK293
Format: binding
Test parameters: GPR50; tracer 1μM
Returns one of TRUE or FALSE; TRUE when NanoBRET Fold Response is >= 1.

Hi, just wondering whether O=C(CCc1ccc2n1[B-](F)(F)[N+]1=C(c3ccc[nH]3)C=CC1=C2)NCCOCCOCCNC(=O)OCCOCCN1CCN(C2=Nc3ccccc3Sc3ccccc32)CC1 shows NanoBRET Fold Response of 1 or higher.
FALSE

Ok, now CCCn1c(=O)c2[nH]c(-c3ccc(OCC(=O)NCCNC(=O)CCOCCNC(=O)c4ccc(CNC(=O)CCc5ccc6n5[B-](F)(F)[N+]5=C(c7ccc[nH]7)C=CC5=C6)cc4)cc3)nc2n(CCC)c1=O
TRUE

How about Cc1cc2c(s1)Nc1ccccc1N=C2N1CCN(CCCNC(=O)CCOCCOCCOCCOCCNC(=O)CCc2ccc3n2[B-](F)(F)[N+]2=C(c4ccc[nH]4)C=CC2=C3)CC1 ?
TRUE

Same again, this time with CC(C)N(CC[C@H](c1ccccc1)c1cc(CCNC(=O)CCOCCOCCOCCOCCNC(=O)CCc2ccc3n2[B-](F)(F)[N+]2=C(c4ccc[nH]4)C=CC2=C3)ccc1O)C(C)C
FALSE

Another compound to check: N#CN=C(NCCCOc1cccc(CN2CCCCC2)c1)NCCNC(=O)CCOCCOCCOCCOCCNC(=O)CCc1ccc2n1[B-](F)(F)[N+]1=C(c3ccc[nH]3)C=CC1=C2
FALSE
